Data credit: PubChem BioAssay AID1996

conditions: buffer; pH 7.4; 200.0 µM
solubility kinetic listing for selected compounds.
Answer in µg/mL, number only, no unit symbol.

# annotated cases, reported solubility kinetic shown
# Compound, Experimental endpoint, Recorded number
data = [
    ("CC(=O)c1c(C)[nH]c(C(=O)OCc2cccc(C)c2)c1C", "solubility kinetic", 4.2),
    ("NC(=O)COC(=O)c1sc2cc(F)ccc2c1Cl", "solubility kinetic", 6.3),
    ("N#Cc1ccc(COC(=O)c2cnc(Cl)c(Cl)c2)cc1", "solubility kinetic", 1.4),
    ("O=C(C1CCCC1)N1CCCC(Nc2ccccc2)C1 (stereo not given)", "solubility kinetic", 35.9),
    ("COc1ccc(NC(=O)COc2ccc3c(c2)CCC3)cc1S(N)(=O)=O", "solubility kinetic", 15.9),
    ("O=C(Nc1cc(S(=O)(=O)N2CCCC2)ccc1Cl)c1cc(F)c(F)c(F)c1F", "solubility kinetic", 17.7),
]

// query // solubility kinetic lookup, key: COc1ccc(C2C(C#N)=C(C)NC(C)=C2C#N)c(OC)c1
// result 4.6

// query // solubility kinetic lookup, key: CN(C)c1c(N)c(=O)oc2ccccc12
// result 27.3

// query // solubility kinetic lookup, key: CN(CC(=O)Nc1cccc(C#N)c1)Cc1ccc(Cl)cc1
// result 27.9

// query // solubility kinetic lookup, key: CCOC(=O)C1=C[C@]2(CC)CCCN3CCc4c(n1c1ccccc41)[C@@H]32
// result 35.5

// query // solubility kinetic lookup, key: COc1cccc(C2CCCCN(C)C2=O)c1 (stereo not given)
// result 32.7

// query // solubility kinetic lookup, key: O=C(CSc1cccc[n+]1[O-])Nc1ccc(Cl)cc1F
// result 15.1

// query // solubility kinetic lookup, key: Cc1cccc(OCC(=O)Nc2ccncc2)c1C
// result 37.8
